Recorded remaining activity at 25 µM by entry
# experimental.system: rCA1 (CA1), beta-class carbonic anhydrase of Paracoccidioides (Paracoccidioides lutzii)
# Construct: gene PAAG_05716; complete cDNA, 282 residues, GST fusion (pGEX-4T-3) from E. coli, GST cut by thrombin; 33 kDa
# Sequence (C1H4M3 1-282): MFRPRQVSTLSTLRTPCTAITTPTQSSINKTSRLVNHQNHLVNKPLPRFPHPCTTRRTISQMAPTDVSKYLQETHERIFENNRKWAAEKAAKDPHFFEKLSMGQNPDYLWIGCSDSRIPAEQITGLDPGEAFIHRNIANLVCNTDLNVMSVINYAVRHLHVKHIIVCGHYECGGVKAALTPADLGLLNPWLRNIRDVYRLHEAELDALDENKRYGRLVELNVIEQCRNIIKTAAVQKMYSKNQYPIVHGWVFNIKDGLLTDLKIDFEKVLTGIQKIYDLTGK
# assay.details: CO2 hydration, electrometric (Wilbur-Anderson)
# Type: biochemical
# measurement.parameters: read-out: CA1- Residual Activity (%)
Write the value in % as a bare number.

Worked set:
N[C@@H](Cc1c[nH]c2ccccc12)C(=O)O: 162
NCCCC[C@H](N)C(=O)O: 138
N[C@@H](Cc1cnc[nH]1)C(=O)O: 142

Which remaining activity at 25 µM is reported for this compound? `N=C(N)NCCC[C@H](N)C(=O)O` 130

----------
Recorded remaining activity at 25 µM by entry
# experimental.system: rCA4 (CA4), alpha-class carbonic anhydrase of Paracoccidioides (Paracoccidioides brasiliensis)
# Construct: 32 kDa
# Sequence (B1PIT4 1-301): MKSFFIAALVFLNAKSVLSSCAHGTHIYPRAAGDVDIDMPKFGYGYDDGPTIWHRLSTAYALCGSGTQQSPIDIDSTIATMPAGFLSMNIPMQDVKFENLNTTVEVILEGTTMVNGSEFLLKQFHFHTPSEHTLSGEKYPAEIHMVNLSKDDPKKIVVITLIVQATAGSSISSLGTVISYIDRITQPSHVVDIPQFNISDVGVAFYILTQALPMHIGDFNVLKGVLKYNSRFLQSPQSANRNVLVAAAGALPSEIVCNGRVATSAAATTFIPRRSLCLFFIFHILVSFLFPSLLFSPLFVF
# assay.details: CO2 hydration, electrometric (Wilbur-Anderson)
# Assay type: biochemical
# measurement.parameters: read-out: CA4- Residual Activity (%)
Write the value in % as a bare number.

N[C@@H](Cc1cnc[nH]1)C(=O)O [L-His]: 152

Which remaining activity at 25 µM is reported for this compound? NCCCC[C@H](N)C(=O)O [L-Lys] 140

Which remaining activity at 25 µM is reported for this compound? N[C@@H](Cc1c[nH]c2ccccc12)C(=O)O [L-Trp] 158

Which remaining activity at 25 µM is reported for this compound? N=C(N)NCCC[C@H](N)C(=O)O [L-Arg] 132
